# Assay System: human recombinant Yes [a.a. 2–543 (end)] (Homo sapiens)
# Construct: human recombinant Yes [a.a; 2–543 (end)]; purchased BPS Bioscience 40488
# Sequence (P07947 2-543): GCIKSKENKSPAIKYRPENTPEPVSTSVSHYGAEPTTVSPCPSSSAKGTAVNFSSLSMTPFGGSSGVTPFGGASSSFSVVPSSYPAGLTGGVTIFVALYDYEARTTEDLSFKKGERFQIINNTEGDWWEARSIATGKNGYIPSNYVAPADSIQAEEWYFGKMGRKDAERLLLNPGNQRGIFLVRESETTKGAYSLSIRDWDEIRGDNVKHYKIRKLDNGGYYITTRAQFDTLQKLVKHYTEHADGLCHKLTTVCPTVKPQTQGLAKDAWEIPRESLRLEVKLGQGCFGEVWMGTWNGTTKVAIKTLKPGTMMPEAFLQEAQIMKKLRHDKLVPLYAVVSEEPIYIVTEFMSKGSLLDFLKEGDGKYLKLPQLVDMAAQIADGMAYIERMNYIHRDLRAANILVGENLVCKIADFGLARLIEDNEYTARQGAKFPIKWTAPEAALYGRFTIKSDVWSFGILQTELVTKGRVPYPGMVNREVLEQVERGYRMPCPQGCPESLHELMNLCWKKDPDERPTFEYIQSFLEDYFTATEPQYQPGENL
# Test Name: ADP-Glo kinase assay, inhibition rates of Yes phosphorylation activity (first and second screening)
# Format: biochemical
# Measurement Parameters: first screening; mean of n = 4 wells; 10 μmol L−1 compound

{"columns": ["Compound", "Assay System", "First screening IR (inhibition rate) [%]"],
 "data": [
  ["CCCN(CCC)S(=O)(=O)c1cccc(S(=O)(=O)N(C)C)c1", "human recombinant Yes [a.a. 2–543 (end)] (Homo sapiens)", -4],
  ["O=C(NCCCOc1ccccc1F)c1ccc2nc[nH]c2c1", "human recombinant Yes [a.a. 2–543 (end)] (Homo sapiens)", 0],
  ["O=C(CSc1n[nH]c(-c2ccccc2)n1)N1N=C(c2ccc(Cl)cc2)CC1c1ccco1 (centres unmarked)", "human recombinant Yes [a.a. 2–543 (end)] (Homo sapiens)", 13],
  ["COc1cccc(OCCN2CCN(c3cc(C(C)(C)C)nc4c(-c5ccc(Cl)cc5)c(C)nn34)CC2)c1", "human recombinant Yes [a.a. 2–543 (end)] (Homo sapiens)", 12],
  ["Cc1nn(C)c2nc(C3CC3)cc(C(=O)Nc3ccccc3O)c12", "human recombinant Yes [a.a. 2–543 (end)] (Homo sapiens)", 27]
]}

====

Measured First screening IR (inhibition rate) values are reported for all entries that follow.
# Assay System: human recombinant Yes [a.a. 2–543 (end)] (Homo sapiens)
# Construct: human recombinant Yes [a.a; 2–543 (end)]; purchased BPS Bioscience 40488
# Test Name: ADP-Glo kinase assay, inhibition rates of Yes phosphorylation activity (first and second screening)
# Type: biochemical
# Measurement Parameters: first screening; mean of n = 4 wells; 10 μmol L−1 compound
Measured Endpoint: First screening IR (inhibition rate)

{"columns": ["Compound", "Value"],
 "data": [
  ["COc1cc(/C=N/Nc2nc(-c3ccncc3)nc3ccccc23)ccc1O [Compound Z56841676]", "18%"],
  ["O=C1CCc2cc(C(=O)Nc3nnc(SCc4c(Cl)cccc4Cl)s3)ccc2N1 [Compound Z164941068]", "-3%"],
  ["CCCCn1c(CN2CCN(c3ncccn3)CC2)nc2c1c(=O)[nH]c(=O)n2Cc1ccccc1 [Compound Z104925552]", "9%"],
  ["Fc1ccc(-c2cc3ncnc(N/N=C/c4ccncc4)c3s2)cc1 [Compound Z50080378]", "67%"]
]}

====

Measured First screening IR (inhibition rate) values are reported for all entries that follow.
# Assay System: human recombinant Yes [a.a. 2–543 (end)] (Homo sapiens)
# Construct: human recombinant Yes [a.a; 2–543 (end)]; purchased BPS Bioscience 40488
# Test Name: ADP-Glo kinase assay, inhibition rates of Yes phosphorylation activity (first and second screening)
# Type: biochemical
# Measurement Parameters: first screening; mean of n = 4 wells; 10 μmol L−1 compound
Measured Endpoint: First screening IR (inhibition rate) (%)

{"columns": ["Compound", "Measured Endpoint", "Value"],
 "data": [
  ["Cc1cccn2cc(-c3ccc(NC(=O)c4ccc(=O)[nH]c4)cc3)nc12 [Compound Z666279820]", "First screening IR (inhibition rate)", -9],
  ["CCC(C)(C)C1C/C(=C/c2ccc(C(C)C)cc2)c2nc3ccccc3c(C(=O)O)c2C1 (stereo not drawn) [Compound Z46116606]", "First screening IR (inhibition rate)", 13],
  ["Cn1c(=O)[nH]c(=O)c2cc(C(=O)OCCNc3ncccc3C#N)cnc21 [Compound Z1633934253]", "First screening IR (inhibition rate)", -1],
  ["CCOC(=O)c1cnc(SCC(=O)OC/C(O)=C(\\C#N)c2nc3ccccc3[nH]2)nc1N [Compound Z76798588]", "First screening IR (inhibition rate)", 5],
  ["CC(C)CNC(=O)c1c(N)n(CCc2ccccc2)c2nc3ccccc3nc12 [Compound Z1033301058]", "First screening IR (inhibition rate)", -2],
  ["Nc1nc(N)nc(CSCc2ccc(-c3ccccc3)cc2)n1 [Compound Z99552008]", "First screening IR (inhibition rate)", -6],
  ["CC(Sc1nnc2ccccn12)C(=O)Nc1nc(-c2ccc(Cl)c(Cl)c2)cs1 (stereo not drawn) [Compound Z20241270]", "First screening IR (inhibition rate)", 4],
  ["Cc1ccc(-c2c(C)sc3nc(CN4CCN(CC(=O)N5CCCCCC5)CC4)[nH]c(=O)c23)cc1 [Compound Z126044810]", "First screening IR (inhibition rate)", -3],
  ["CCSc1ccc(C(=O)NCCc2nc(-c3ccco3)n[nH]2)cn1 [Compound Z1174718157]", "First screening IR (inhibition rate)", 62],
  ["Cc1ccc(C(=O)CC2(O)C(=O)Nc3ccc(Cl)cc32)cc1 (stereo not drawn) [Compound Z57172226]", "First screening IR (inhibition rate)", 2],
  ["Cc1cc(C)n(C(C)C(=O)Nc2ccc(NC(=O)C(C)(C)C)cc2Cl)n1 (stereo not drawn) [Compound Z850607168]", "First screening IR (inhibition rate)", 3],
  ["CC1CCc2c(sc3nc4c(c(-c5ccco5)c23)-c2ccccc2CC4)C1.Cl (stereo not drawn) [Compound Z76887050]", "First screening IR (inhibition rate)", 8]
]}

Entry source: paper PMC5607274
